Recorded values, source the supplement of paper PMC10567573.

B1: MFF (parent)
chain: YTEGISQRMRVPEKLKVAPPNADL

Variants of: B1
Experiment: protein stability index of a GFP-peptide fusion (GPS, HEK-293T) (PSI 1-6); higher = more stable;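 note: lentivirally expressed fusions sorted by FACS into six bins by GFP to DsRed ratio, PSI derived from sequencing read proportions per bin multiplied by bin number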
Details: c terminus: a fixed tail appended
Response key: Satisfied means protein stability index >= 3; Not satisfied means protein stability index < 3.

mutationString: A18S
assignedCategory: Not satisfied
--
mutationString: G4Y
assignedCategory: Not satisfied
--
mutationString: T2A
assignedCategory: Not satisfied
--
mutationString: Y1L
assignedCategory: Satisfied
--
mutationString: V11P
assignedCategory: Not satisfied
--
mutationString: L15G
assignedCategory: Satisfied
--
mutationString: V17P
assignedCategory: Satisfied
--
mutationString: L24S
assignedCategory: Not satisfied
--
mutationString: Y1R
assignedCategory: Satisfied
--
mutationString: T2D
assignedCategory: Satisfied
--
mutationString: A22W
assignedCategory: Not satisfied
--
mutationString: R8G
assignedCategory: Not satisfied
--
mutationString: D23A
assignedCategory: Not satisfied
--
mutationString: P12L
assignedCategory: Not satisfied
--
mutationString: G4L
assignedCategory: Not satisfied
--
mutationString: S6A
assignedCategory: Not satisfied
--
mutationString: Y1A
assignedCategory: Satisfied
--
mutationString: P12C
assignedCategory: Not satisfied
--
mutationString: G4F
assignedCategory: Not satisfied
--
mutationString: L15M
assignedCategory: Not satisfied
--
mutationString: T2F
assignedCategory: Satisfied
--
mutationString: E13Q
assignedCategory: Not satisfied
--
mutationString: S6C
assignedCategory: Not satisfied
--
mutationString: L24D
assignedCategory: Satisfied
--
mutationString: K14L
assignedCategory: Not satisfied
--
mutationString: K14H
assignedCategory: Not satisfied
--
mutationString: L15F
assignedCategory: Not satisfied
--
mutationString: R8K
assignedCategory: Not satisfied
--
mutationString: T2E
assignedCategory: Satisfied
--
mutationString: T2H
assignedCategory: Not satisfied
--
mutationString: V11C
assignedCategory: Not satisfied
--
mutationString: Y1C
assignedCategory: Satisfied
--
mutationString: L15A
assignedCategory: Satisfied
--
mutationString: E3F
assignedCategory: Not satisfied
--
mutationString: I5W
assignedCategory: Not satisfied
--
mutationString: A22L
assignedCategory: Not satisfied
--
mutationString: A22Q
assignedCategory: Not satisfied
--
mutationString: D23Q
assignedCategory: Not satisfied
--
mutationString: R8E
assignedCategory: Satisfied
--
mutationString: N21T
assignedCategory: Not satisfied
--
mutationString: L24H
assignedCategory: Satisfied
--
mutationString: E13M
assignedCategory: Not satisfied
--
mutationString: R10K
assignedCategory: Satisfied
--
mutationString: V17L
assignedCategory: Not satisfied
--
mutationString: I5G
assignedCategory: Satisfied
--
mutationString: K16Q
assignedCategory: Not satisfied
--
mutationString: D23S
assignedCategory: Not satisfied
--
mutationString: D23M
assignedCategory: Not satisfied
--
mutationString: M9A
assignedCategory: Not satisfied
--
mutationString: D23Y
assignedCategory: Not satisfied
--
mutationString: V11Y
assignedCategory: Not satisfied
